Parameter: EC50. Scope: all listed entries.
Molecular target: human Kv7.2 (Homo sapiens, UniProt O43526)
Sequence (O43526 whole entry): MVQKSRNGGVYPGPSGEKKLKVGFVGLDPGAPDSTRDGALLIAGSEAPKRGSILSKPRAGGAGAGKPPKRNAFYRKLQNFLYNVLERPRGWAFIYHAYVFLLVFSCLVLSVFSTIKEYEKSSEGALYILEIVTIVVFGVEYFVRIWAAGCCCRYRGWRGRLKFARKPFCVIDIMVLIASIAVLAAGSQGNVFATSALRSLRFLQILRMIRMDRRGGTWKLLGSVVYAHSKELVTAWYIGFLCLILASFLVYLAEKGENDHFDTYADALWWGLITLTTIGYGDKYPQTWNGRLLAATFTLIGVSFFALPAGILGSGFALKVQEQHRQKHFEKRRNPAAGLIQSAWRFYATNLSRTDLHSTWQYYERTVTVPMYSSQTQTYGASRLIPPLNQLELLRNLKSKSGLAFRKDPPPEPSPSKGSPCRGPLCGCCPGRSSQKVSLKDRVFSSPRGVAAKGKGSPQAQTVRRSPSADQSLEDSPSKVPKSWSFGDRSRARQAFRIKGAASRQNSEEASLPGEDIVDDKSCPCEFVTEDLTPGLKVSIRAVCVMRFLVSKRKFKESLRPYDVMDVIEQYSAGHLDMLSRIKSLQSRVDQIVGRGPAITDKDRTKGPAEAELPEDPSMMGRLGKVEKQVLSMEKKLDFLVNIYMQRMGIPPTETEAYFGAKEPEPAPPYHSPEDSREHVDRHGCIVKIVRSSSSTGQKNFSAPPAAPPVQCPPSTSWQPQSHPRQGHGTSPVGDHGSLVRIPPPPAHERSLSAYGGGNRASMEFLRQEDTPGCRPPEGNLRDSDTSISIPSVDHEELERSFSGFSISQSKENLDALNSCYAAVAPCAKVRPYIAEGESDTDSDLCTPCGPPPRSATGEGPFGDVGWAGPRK
Assay: activation (potentiation) of Kv7.2 current, SyncroPatch 384 electrophysiology in CHO cells stably expressing human Kv7.2
Conditions: human Kv7.2 in CHO cells; in presence of 5.6 μM zinc pyrithione; % activation relative to 30 μM ML-213

- compound: "COC(CNC(=O)[C@H]1C[C@@H]1c1ccccc1)c1cccc(Cl)c1 (mixture of isomers)"
  target system: "human Kv7.2 (Homo sapiens, UniProt O43526)"
  EC50: "970 nM"
- compound: "CC#C[C@H]1C[C@@H]1C(=O)NC[C@@]1(c2cccc(C#N)c2)CCO1 (mixture of isomers)"
  target system: "human Kv7.2 (Homo sapiens, UniProt O43526)"
  EC50: "1700 nM"
- compound: "CC(F)(F)[C@H]1C[C@@H]1C(=O)NC[C@@]1(c2cccc(C#N)c2)CCO1 (mixture of isomers)"
  target system: "human Kv7.2 (Homo sapiens, UniProt O43526)"
  EC50: "2180 nM"
- compound: "N#Cc1cccc(C2(CNC(=O)[C@H]3C[C@@H]3c3ccccc3)CCC(=O)O2)c1 (some centres unmarked)"
  target system: "human Kv7.2 (Homo sapiens, UniProt O43526)"
  EC50: "200 nM"
- compound: "O=C(NC/C(=C/CO)c1cccc(Cl)c1)[C@H]1C[C@@H]1c1ccccc1"
  target system: "human Kv7.2 (Homo sapiens, UniProt O43526)"
  EC50: "340 nM"
- compound: "O=C(CC12CC(C1)C2)NCC1(c2cccc(Cl)c2)CCO1 (centres unmarked)"
  target system: "human Kv7.2 (Homo sapiens, UniProt O43526)"
  EC50: "5190 nM"
- compound: "N#Cc1cccc(C2(CNC(=O)CC3CCCCC3)OCC2(F)F)c1 (centres unmarked)"
  target system: "human Kv7.2 (Homo sapiens, UniProt O43526)"
  EC50: "1120 nM"
- compound: "O=C(CC1CCCCC1)NCC1(c2cccc(OC(F)F)n2)CCO1 (centres unmarked)"
  target system: "human Kv7.2 (Homo sapiens, UniProt O43526)"
  EC50: "660 nM"

====

Parameter: EC50. Scope: all listed entries.
Target: human Kv7.2 (Homo sapiens)
Assay: activation (potentiation) of Kv7.2 current, SyncroPatch 384 electrophysiology in CHO cells stably expressing human Kv7.2
Conditions: human Kv7.2 in CHO cells; in presence of 5.6 μM zinc pyrithione; % activation relative to 30 μM ML-213

- molecule: "N#Cc1cccc([C@@]2(CNC(=O)CC3CCCCCC3)CCO2)c1"
  EC50 (µM): 5.62
- molecule: "O=C(NC(CO)C1(c2cccc(Cl)c2)CC1)[C@H]1C[C@@H]1c1ccccc1 (some centres unmarked)"
  EC50 (µM): 5.62
- molecule: "CC(C#N)(CNC(=O)[C@H]1C[C@@H]1c1ccccc1)c1cccc(C(F)(F)F)c1 (mixture of isomers)"
  EC50 (µM): 2.49
- molecule: "N#Cc1cccc([C@]2(CNC(=O)CC3(O)CC4CCC3C4)CCO2)c1 (some centres unmarked)"
  EC50 (µM): 2.01
- molecule: "COc1ccc(CCNC(=O)NCC(C)(OC)c2cccc(Cl)c2)cc1 (centres unmarked)"
  EC50 (µM): 3.94

====

Target: human Kv7.2 (Homo sapiens, UniProt O43526)
Assay: activation (potentiation) of Kv7.2 current, SyncroPatch 384 electrophysiology in CHO cells stably expressing human Kv7.2
Details: human Kv7.2 in CHO cells; in presence of 5.6 μM zinc pyrithione; % activation relative to 30 μM ML-213
pEC50: −log10 of the molar value.
Decision: pEC50 >= 6 yields Satisfied, all other cases yield Not satisfied.

- compound: "N#Cc1cccc([C@]2(CNC(=O)C(F)CC3CCCC3)CCO2)c1 (stereo partly shown)"
  category label: "Not satisfied"
- compound: "N#Cc1cccc([C@]2(CNC(=O)[C@H]3C[C@@H]3c3ccc(F)cc3)CCO2)c1 (mixture of isomers)"
  category label: "Satisfied"
- compound: "N#Cc1cccc([C@]2(CNC(=O)C3CCC34CCC4)CCO2)c1 (stereo partly shown)"
  category label: "Not satisfied"
- compound: "N#Cc1cccc([C@]2(CNC(=O)[C@H]3C[C@@H]3C3CCC3)CCO2)c1 (mixture of isomers)"
  category label: "Satisfied"
